B1: glmS ribozyme (parent)
chain: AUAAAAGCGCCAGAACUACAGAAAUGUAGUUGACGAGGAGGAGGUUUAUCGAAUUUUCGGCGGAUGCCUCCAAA

# Variants of: B1
# Assay comment: self-cleavage kobs at 640 uM GlcN6P; higher = faster cleavage; RNA array
# Assay context: with glucosamine-6-phosphate
This sample holds only a part of the variants without activity.
Below, each entry is listed alongside its reported self-cleavage kobs at 640 uM GlcN6P.

Would you please look over these solved cases?
- Variant annotation: "C11U A48U G66U"
  self-cleavage kobs at 640 uM GlcN6P: "< 1e-05 s⁻¹"
- Variant annotation: "C16A U30G U45G G60A G66U"
  self-cleavage kobs at 640 uM GlcN6P: "< 1e-05 s⁻¹"
- Variant annotation: "U27G A28U U30G C68A"
  self-cleavage kobs at 640 uM GlcN6P: "< 1e-05 s⁻¹"

IN: Output measured self-cleavage kobs at 640 uM GlcN6P for this item: A14G C50G C71U
OUT: 0.00131 s⁻¹

IN: Give the measured self-cleavage kobs at 640 uM GlcN6P for A42G U69C
OUT: 0.0132 s⁻¹

IN: Give the value of self-cleavage kobs at 640 uM GlcN6P reported for the following: C19A C67G
OUT: 0.000207 s⁻¹

IN: Read the entry G7C C10A G13A G37A U45A and write its reported self-cleavage kobs at 640 uM GlcN6P.
OUT: < 1e-05 s⁻¹

IN: Answer with reported self-cleavage kobs at 640 uM GlcN6P of A14G A15U G40U
OUT: 0.00146 s⁻¹

IN: Specify measured self-cleavage kobs at 640 uM GlcN6P for C8A A14G .
OUT: < 1e-05 s⁻¹

IN: Return reported self-cleavage kobs at 640 uM GlcN6P. Input variant: A15G U55A
OUT: 0.0107 s⁻¹

IN: Please give measured self-cleavage kobs at 640 uM GlcN6P of the following entry: A15U C50G G66C C71G
OUT: 7.22e-05 s⁻¹

IN: Quote self-cleavage kobs at 640 uM GlcN6P reported for A15U U65A please.
OUT: 0.000146 s⁻¹

IN: State, in one line, measured self-cleavage kobs at 640 uM GlcN6P of C11A C34G G43C G51U G60C
OUT: < 1e-05 s⁻¹

IN: Item A39U G43U : provide self-cleavage kobs at 640 uM GlcN6P
OUT: 0.000127 s⁻¹

IN: Name the recorded self-cleavage kobs at 640 uM GlcN6P of the variant listed here: G32U A33C U45G U65A
OUT: < 1e-05 s⁻¹

IN: Supply reported self-cleavage kobs at 640 uM GlcN6P belonging to this variant: C11A G37U A64G
OUT: < 1e-05 s⁻¹

IN: Assign self-cleavage kobs at 640 uM GlcN6P to the following record: A6U G37C G38A C71A
OUT: < 1e-05 s⁻¹

IN: Return self-cleavage kobs at 640 uM GlcN6P (reported value) for this variant: C10U C11G A39C
OUT: < 1e-05 s⁻¹

IN: Indicate its recorded self-cleavage kobs at 640 uM GlcN6P; the variant in question is G38C G63A
OUT: < 1e-05 s⁻¹
